Experiment: Solubility measurement in various solvents at 25° C. (Procedure 1)
Assay type: physicochemical
Settings: 10% water in acetone, organic solvent or mixture, thermodynamic from solid
Measurement Name: solubility (µg/mL)
Express the result in µg/mL but write the number alone.

Fill blank: measured solubility of the compound Cl.Cl.Cn1c(C(=O)Nc2cccc(-c3cccc(NC(=O)c4nc5c(n4C)CCN(CCC46CCC(C(=O)O)(CC4)C6)C5)c3Cl)c2Cl)nc2c1CCN(CCC13CCC(C(=O)O)(CC1)C3)C2 is ____.
2300

----------
Assay: Solubility measurement in various solvents at 50° C. (Procedure 2)
Format: physicochemical
Settings: MeCN, organic solvent or mixture
Measurement Name: solubility
Remember to quote the unit after the number.

Tell me the measured solubility of Cl.Cl.Cn1c(C(=O)Nc2cccc(-c3cccc(NC(=O)c4nc5c(n4C)CCN(CCC46CCC(C(=O)O)(CC4)C6)C5)c3Cl)c2Cl)nc2c1CCN(CCC13CCC(C(=O)O)(CC1)C3)C2 , please.
10 µg/mL
